Origin of values: patent US8093249B2

biological target: hCaV2.2 (Homo sapiens); construct: expressed in transfected cells; plasmids pCIN5-hCaV2.2, pCIH-hCaV β3, pCIP-α2δ1; assay: hCaV2.2 assay (IonWorks planar array electrophysiology, HEK293 stable cell line); format: cell-based; details: inhibition of current elicited by the 1st depolarizing pulse by 50%, HEK293 cells expressing human CaV2.2 α/β3/α2δ1; read-out: mean pIC50 value (tonic pIC50) (converted)
Sequence (Q00975 whole entry): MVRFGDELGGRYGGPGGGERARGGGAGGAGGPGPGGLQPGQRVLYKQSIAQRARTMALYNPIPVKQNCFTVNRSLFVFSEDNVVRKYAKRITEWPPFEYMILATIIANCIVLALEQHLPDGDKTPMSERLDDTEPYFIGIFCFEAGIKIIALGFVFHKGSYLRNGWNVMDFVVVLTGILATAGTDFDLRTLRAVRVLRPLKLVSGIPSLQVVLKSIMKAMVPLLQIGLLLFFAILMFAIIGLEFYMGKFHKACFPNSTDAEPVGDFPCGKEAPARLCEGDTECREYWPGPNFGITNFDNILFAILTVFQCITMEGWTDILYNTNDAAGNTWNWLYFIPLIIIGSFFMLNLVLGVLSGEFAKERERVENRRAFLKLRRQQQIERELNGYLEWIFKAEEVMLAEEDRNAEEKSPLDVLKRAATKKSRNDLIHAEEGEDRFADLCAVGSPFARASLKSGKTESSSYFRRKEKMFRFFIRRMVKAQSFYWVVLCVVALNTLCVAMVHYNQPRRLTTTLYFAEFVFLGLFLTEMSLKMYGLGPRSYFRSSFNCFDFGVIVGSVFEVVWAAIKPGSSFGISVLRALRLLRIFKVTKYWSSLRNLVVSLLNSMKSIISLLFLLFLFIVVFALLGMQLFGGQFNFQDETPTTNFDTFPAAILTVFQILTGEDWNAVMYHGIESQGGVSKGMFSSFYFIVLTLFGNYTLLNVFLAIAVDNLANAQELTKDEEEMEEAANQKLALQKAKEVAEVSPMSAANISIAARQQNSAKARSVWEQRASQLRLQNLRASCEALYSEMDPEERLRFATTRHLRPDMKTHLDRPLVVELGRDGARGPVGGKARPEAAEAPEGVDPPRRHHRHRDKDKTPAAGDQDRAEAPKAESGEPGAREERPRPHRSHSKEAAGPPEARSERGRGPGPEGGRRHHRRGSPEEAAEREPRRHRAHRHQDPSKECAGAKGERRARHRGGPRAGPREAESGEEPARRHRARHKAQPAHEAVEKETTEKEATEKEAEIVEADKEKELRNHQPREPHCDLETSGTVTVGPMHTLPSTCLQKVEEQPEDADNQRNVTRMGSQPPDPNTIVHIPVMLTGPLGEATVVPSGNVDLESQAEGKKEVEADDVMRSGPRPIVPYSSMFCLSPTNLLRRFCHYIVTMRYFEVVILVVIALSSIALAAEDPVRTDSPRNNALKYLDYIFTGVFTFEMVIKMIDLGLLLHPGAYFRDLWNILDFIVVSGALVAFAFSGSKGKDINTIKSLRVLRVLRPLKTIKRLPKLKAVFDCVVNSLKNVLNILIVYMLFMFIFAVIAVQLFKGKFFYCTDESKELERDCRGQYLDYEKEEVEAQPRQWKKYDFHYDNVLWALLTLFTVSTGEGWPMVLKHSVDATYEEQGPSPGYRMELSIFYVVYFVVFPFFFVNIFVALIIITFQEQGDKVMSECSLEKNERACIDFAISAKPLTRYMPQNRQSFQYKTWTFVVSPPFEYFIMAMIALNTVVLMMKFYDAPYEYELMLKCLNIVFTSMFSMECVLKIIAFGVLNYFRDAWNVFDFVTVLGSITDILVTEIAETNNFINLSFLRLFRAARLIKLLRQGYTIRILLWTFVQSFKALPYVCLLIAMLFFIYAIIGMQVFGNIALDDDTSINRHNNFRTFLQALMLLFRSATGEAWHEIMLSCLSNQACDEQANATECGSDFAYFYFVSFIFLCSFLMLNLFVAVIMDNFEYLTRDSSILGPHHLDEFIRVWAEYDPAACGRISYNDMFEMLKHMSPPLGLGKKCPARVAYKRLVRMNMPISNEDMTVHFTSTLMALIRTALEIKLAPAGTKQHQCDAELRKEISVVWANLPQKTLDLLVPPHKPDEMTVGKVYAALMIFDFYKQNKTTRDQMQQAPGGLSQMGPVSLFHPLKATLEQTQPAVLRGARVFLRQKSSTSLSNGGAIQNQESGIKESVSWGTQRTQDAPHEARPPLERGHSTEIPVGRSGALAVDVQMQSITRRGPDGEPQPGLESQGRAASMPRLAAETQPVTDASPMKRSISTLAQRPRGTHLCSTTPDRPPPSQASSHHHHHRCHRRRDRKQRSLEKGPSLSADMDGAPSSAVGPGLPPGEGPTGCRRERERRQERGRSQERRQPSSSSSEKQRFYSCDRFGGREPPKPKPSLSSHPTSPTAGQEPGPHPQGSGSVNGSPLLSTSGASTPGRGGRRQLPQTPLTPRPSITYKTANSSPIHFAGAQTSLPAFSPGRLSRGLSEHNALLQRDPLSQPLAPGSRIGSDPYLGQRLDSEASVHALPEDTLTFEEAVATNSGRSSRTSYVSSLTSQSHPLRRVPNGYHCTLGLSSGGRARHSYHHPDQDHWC
Sequence (P54284 whole entry partner): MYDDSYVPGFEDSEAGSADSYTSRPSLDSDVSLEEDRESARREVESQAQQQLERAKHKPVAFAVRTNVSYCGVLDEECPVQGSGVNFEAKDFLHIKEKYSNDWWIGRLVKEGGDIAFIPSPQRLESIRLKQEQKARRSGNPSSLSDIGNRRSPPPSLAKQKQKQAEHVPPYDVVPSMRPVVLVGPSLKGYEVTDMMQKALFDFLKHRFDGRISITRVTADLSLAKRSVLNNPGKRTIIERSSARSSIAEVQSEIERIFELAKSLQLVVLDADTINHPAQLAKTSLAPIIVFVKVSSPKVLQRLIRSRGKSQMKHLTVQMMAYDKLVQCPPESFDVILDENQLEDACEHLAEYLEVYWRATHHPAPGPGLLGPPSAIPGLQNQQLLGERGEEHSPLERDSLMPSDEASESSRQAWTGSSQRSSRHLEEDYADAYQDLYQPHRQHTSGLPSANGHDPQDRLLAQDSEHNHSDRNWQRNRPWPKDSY
Sequence (P54289 25-946 partner limits assumed): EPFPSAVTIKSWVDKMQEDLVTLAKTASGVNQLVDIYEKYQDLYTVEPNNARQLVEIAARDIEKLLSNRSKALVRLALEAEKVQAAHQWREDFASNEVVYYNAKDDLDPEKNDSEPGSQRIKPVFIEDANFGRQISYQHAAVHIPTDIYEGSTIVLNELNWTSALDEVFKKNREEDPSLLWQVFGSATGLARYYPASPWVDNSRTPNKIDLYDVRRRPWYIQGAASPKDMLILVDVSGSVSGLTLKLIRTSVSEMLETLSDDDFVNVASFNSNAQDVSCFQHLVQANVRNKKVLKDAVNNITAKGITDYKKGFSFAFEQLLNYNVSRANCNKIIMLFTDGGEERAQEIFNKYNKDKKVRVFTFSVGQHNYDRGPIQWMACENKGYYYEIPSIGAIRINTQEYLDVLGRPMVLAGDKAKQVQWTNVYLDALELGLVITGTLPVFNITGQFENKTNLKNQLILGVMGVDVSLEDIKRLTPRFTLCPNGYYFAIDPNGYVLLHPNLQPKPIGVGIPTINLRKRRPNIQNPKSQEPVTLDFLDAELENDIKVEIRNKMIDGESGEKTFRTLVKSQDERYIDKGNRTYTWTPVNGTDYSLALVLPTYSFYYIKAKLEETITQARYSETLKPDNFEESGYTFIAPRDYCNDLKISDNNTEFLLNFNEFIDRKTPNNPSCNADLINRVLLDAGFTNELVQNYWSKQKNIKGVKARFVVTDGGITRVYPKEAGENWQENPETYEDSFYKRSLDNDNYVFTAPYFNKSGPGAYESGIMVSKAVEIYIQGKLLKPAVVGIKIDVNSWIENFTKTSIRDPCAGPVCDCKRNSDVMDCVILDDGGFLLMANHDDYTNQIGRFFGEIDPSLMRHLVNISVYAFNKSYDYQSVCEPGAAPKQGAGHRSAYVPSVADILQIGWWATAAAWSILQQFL
Sequence (P54289 947-1103 partner limits assumed): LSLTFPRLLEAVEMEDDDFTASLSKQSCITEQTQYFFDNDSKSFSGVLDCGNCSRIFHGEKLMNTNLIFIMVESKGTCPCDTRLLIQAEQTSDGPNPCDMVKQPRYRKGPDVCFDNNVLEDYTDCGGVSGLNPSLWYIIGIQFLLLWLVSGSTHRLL
IC50 overview

The following compounds have reported results that may help.
C[C@H]1CN(C(=O)c2cnn3cccnc23)CCN1S(=O)(=O)c1ccc(OC(F)(F)F)cc1
≥ 31.6 µM
Cc1nn2cccnc2c1C(=O)N1CCN(S(=O)(=O)c2ccc(C(F)(F)F)cc2)C[C@@H]1C
≥ 10 µM
Cc1cc(C#N)ccc1S(=O)(=O)N1CCN(C(=O)c2cnn3cccnc23)[C@@H](C)C1
≥ 31.6 µM

Pending compound:
Field request: IC50 | item: Cc1cc(C)n2ncc(C(=O)N3CCN(S(=O)(=O)c4ccc(C(F)(F)F)cc4)CC3)c2n1
≥ 31.6 µM
